assaySystem: NAD-dependent protein deacetylase sirtuin-2 (Homo sapiens) (UniProt Q8IXJ6)
Sequence (whole entry): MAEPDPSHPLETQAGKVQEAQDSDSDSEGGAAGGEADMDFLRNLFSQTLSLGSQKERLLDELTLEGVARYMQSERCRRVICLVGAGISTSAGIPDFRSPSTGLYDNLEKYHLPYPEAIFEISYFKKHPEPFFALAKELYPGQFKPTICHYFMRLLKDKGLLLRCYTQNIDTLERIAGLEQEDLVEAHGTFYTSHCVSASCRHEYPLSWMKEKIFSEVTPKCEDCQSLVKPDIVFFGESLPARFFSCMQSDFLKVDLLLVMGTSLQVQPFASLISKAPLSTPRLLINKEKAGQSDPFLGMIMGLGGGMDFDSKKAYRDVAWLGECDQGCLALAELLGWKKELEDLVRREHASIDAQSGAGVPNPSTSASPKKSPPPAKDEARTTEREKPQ
experiment: Inhibition of recombinant GST-tagged sirtuin-2 (unknown origin) using KI179 as substrate at 200 uM after 1 hr by fluorescence assay
Please use yes (1) whenever inhibition is not below 70%, and no (0) whenever it is.

inhibition >= 70% for O=C(O)CCCC1CC(=O)c2cc(Cl)cc(Br)c2O1 (stereo unspecified) ?
no (0)

inhibition >= 70% for O=C1CC(CCc2ccncc2)Oc2c(Br)cc(Cl)cc21 (stereo unspecified) ?
yes (1)

# check: inhibition of O=C1CC(CCc2ccc3[nH]c(=O)ccc3c2)Oc2c(Br)cc(Cl)cc21 (stereo unspecified) is greater than or equal to 70%
no (0)

# check: inhibition of Cc1noc(CCC2CC(=O)c3cc(Cl)cc(Br)c3O2)n1 (stereo unspecified) is greater than or equal to 70%
yes (1)

Does the reported inhibition for CC(C)NC(=O)CCCC1CC(=O)c2cc(Cl)cc(Br)c2O1 (stereo unspecified) fall at or above the 70% mark?
no (0)

Evaluate COCCOCC1CC(=O)c2cc(Cl)cc(Br)c2O1 (stereo unspecified) : inhibition at minimum 70%?
no (0)

hey, is inhibition for this one >= 70%? CCCCCC1CC(=O)c2cc(Br)cc(Cl)c2O1 (stereo unspecified)
yes (1)

Reported inhibition reaches at least 70% for CN(C)C(=O)CCCC1CC(=O)c2cc(Cl)cc(Br)c2O1 (stereo unspecified) ?
no (0)

In plain terms: is recorded inhibition at least 70% for O=C1CC(CCCO)Oc2c(Br)cc(Cl)cc21 (stereo unspecified) ?
no (0)

API: above_or_equal(metric=inhibition, cutoff=70%) for item O=C1CC(CCc2cccnc2)Oc2c(Br)cc(Cl)cc21 (stereo unspecified)
yes (1)

Does inhibition meet or surpass 70% for Cc1noc(CCCC2CC(=O)c3cc(Cl)cc(Br)c3O2)n1 (stereo unspecified) ?
no (0)

Can CNC(=O)CCC1CC(=O)c2cc(Cl)cc(Br)c2O1 (stereo unspecified) be said to have inhibition at or above 70%?
no (0)

Kindly determine if inhibition recorded for CNC(=O)CCCC1CC(=O)c2cc(Cl)cc(Br)c2O1 (stereo unspecified) is above or exactly 70%.
no (0)

Quick check, inhibition >= 70%? O=C1CC(CCc2ccc3ncccc3c2)Oc2c(Br)cc(Cl)cc21 (stereo unspecified)
no (0)

Answer whether inhibition of O=C1CC(CCc2ccccn2)Oc2c(Br)cc(Cl)cc21 (stereo unspecified) is greater than or equal to 70%.
yes (1)

Say whether Nc1c(CCc2ccccc2)oc2c(Br)cc(Cl)cc2c1=O shows inhibition of 70% or more.
yes (1)

Identify whether the reported inhibition of the following compound is 70% or greater: O=C1CC(CCCCO)Oc2c(Br)cc(Cl)cc21 (stereo unspecified)
no (0)

Say whether N/C=C1\C(=O)c2cc(Cl)cc(Br)c2OC1CCc1ccccc1 (stereo unspecified) shows inhibition of 70% or more.
yes (1)

Is the recorded value of inhibition equal to or greater than 70% for this compound? O=C1CC(CCCCCO)Oc2c(Br)cc(Cl)cc21 (stereo unspecified)
no (0)

Identify whether the reported inhibition of the following compound is 70% or greater: CC(=O)Nc1c(CCc2ccccc2)oc2c(Br)cc(Cl)cc2c1=O
yes (1)
